Assay: Caco-2 permeation assay
Assay type: in vitro ADME
Settings: human, Caco-2, pH 7.2
Property Label: efflux ratio at 2 h, 2 μM

[[record]]
input_smiles = "CS(=O)(=O)Cc1cccc(Nc2ncnc(-c3ccccc3OCc3cccc(F)c3)n2)c1"
measurement = 0.43


----------
Test system: NCI-H460, human non-small cell lung carcinoma cells
Test: Proliferation assay (crystal violet), NCI-H460
Type: cell-based
Settings: read-out: Inhibition of H460 cell proliferation (activity range)
pIC50: −log10 of the molar value.
Each entry below carries its reported pIC50.
Property Label: pIC50

[[record]]
input_smiles = "COc1cc(F)ccc1-c1ncnc(Nc2cc(F)cc(CS(C)(=O)=O)c2)n1"
property_label = "pIC50"
measurement = 6.66

[[record]]
input_smiles = "CCCCOc1cc(F)ccc1-c1ncnc(Nc2cccc(CS(C)(=O)=O)c2)n1"
property_label = "pIC50"
measurement = 6.36

[[record]]
input_smiles = "CS(=O)(=O)Cc1cccc(Nc2ncnc(-c3ccc(F)cc3OCc3ccncc3)n2)c1"
property_label = "pIC50"
measurement = 6.77

[[record]]
input_smiles = "CS(=O)(=O)Cc1cccc(Nc2ncnc(-c3cc(F)ccc3OCc3cccc(F)c3)n2)c1"
property_label = "pIC50"
measurement = 6.70

[[record]]
input_smiles = "COc1cc(F)ccc1-c1ncnc(Nc2ccc(F)c(CS(C)(=O)=O)c2)n1"
property_label = "pIC50"
measurement = 6.47

[[record]]
input_smiles = "CC#CCOc1cc(F)ccc1-c1ncnc(Nc2cccc(CS(C)(=O)=O)c2)n1"
property_label = "pIC50"
measurement = 6.80

[[record]]
input_smiles = "COc1cc(F)ccc1-c1ncnc(Nc2cccc(CS(=O)(=O)C3CCCCC3)c2)n1"
property_label = "pIC50"
measurement = 6.16

[[record]]
input_smiles = "CS(=O)(=O)Cc1cccc(Nc2ncnc(-c3ccc(F)cc3OCCCC(F)(F)F)n2)c1"
property_label = "pIC50"
measurement = 6.46


----------
Target: CDK9/CycT1 (Homo sapiens, UniProt P50750)
Construct: Recombinant full-length His-tagged human CDK9 and CycT1; His
Sequence (P50750 whole entry): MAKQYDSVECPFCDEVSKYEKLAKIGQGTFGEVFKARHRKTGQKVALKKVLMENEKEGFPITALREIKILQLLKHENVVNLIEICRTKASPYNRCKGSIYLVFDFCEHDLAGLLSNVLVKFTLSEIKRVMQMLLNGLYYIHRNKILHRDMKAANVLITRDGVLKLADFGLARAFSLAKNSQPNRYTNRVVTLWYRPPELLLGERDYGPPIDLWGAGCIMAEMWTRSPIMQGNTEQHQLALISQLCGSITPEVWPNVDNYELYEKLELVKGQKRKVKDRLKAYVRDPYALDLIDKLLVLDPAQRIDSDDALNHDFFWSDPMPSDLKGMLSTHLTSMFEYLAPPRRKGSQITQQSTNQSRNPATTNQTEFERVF
Sequence (O60563 whole entry partner): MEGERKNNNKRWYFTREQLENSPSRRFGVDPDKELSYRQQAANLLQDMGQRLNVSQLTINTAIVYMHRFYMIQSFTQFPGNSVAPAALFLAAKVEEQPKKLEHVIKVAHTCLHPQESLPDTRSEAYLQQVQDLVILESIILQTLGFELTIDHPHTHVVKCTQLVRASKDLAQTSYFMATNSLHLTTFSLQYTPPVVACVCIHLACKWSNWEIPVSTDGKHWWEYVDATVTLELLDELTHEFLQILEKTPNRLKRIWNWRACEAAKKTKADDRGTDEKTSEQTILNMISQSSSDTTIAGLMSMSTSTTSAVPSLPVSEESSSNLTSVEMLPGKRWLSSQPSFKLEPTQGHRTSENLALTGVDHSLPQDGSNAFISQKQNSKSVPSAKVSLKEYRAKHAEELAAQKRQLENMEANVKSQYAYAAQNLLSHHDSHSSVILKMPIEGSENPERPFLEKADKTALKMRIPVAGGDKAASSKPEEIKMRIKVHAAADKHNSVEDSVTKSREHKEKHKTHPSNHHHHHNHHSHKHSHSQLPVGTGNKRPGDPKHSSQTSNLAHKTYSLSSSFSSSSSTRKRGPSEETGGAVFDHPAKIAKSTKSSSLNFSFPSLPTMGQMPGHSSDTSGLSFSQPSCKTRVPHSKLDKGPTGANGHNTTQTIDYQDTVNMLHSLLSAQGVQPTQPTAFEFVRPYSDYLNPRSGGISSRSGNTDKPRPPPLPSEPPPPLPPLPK
Assay: CDK9/CycT1 kinase assay (TR-FRET)
Details: Method 1, 10 μM ATP
pIC50: −log10 of the molar value.
Property Label: pIC50

[[record]]
molecule = "COc1cc(F)ccc1-c1ncnc(Nc2cc(Cl)cc(CS(C)(=O)=O)c2)n1"
tested_system = "CDK9/CycT1 (Homo sapiens, UniProt P50750)"
property_label = "pIC50"
measurement = 8.05

[[record]]
molecule = "CS(=O)(=O)Cc1cccc(Nc2ncnc(-c3ccc(F)cc3OCc3cc(F)cc(F)c3F)n2)c1"
tested_system = "CDK9/CycT1 (Homo sapiens, UniProt P50750)"
property_label = "pIC50"
measurement = 8.52

[[record]]
molecule = "CS(=O)(=O)Cc1cccc(Nc2ncnc(-c3ccc(F)cc3OCc3cccc(Cl)c3)n2)c1"
tested_system = "CDK9/CycT1 (Homo sapiens, UniProt P50750)"
property_label = "pIC50"
measurement = 8.15

[[record]]
molecule = "CS(=O)(=O)Cc1cccc(Nc2ncnc(-c3cccc4c3OCCO4)n2)c1"
tested_system = "CDK9/CycT1 (Homo sapiens, UniProt P50750)"
property_label = "pIC50"
measurement = 8.10

[[record]]
molecule = "CS(=O)(=O)Cc1cccc(Nc2ncnc(-c3ccc(F)cc3OCc3cc(F)ccc3F)n2)c1"
tested_system = "CDK9/CycT1 (Homo sapiens, UniProt P50750)"
property_label = "pIC50"
measurement = 8.30

[[record]]
molecule = "CS(=O)(=O)Cc1cccc(Nc2ncnc(-c3ccc(F)cc3OCc3cc(F)cc(C(F)(F)F)c3)n2)c1"
tested_system = "CDK9/CycT1 (Homo sapiens, UniProt P50750)"
property_label = "pIC50"
measurement = 8.40

[[record]]
molecule = "CS(=O)(=O)Cc1cccc(Nc2ncnc(-c3ccc(F)cc3OCCCC(F)(F)F)n2)c1"
tested_system = "CDK9/CycT1 (Homo sapiens, UniProt P50750)"
property_label = "pIC50"
measurement = 8.30

[[record]]
molecule = "COc1cc(F)ccc1-c1ncnc(Nc2cc(F)cc(CS(C)(=O)=O)c2)n1"
tested_system = "CDK9/CycT1 (Homo sapiens, UniProt P50750)"
property_label = "pIC50"
measurement = 8.22

[[record]]
molecule = "CCCOc1cc(F)ccc1-c1ncnc(Nc2cccc(CS(C)(=O)=O)c2)n1"
tested_system = "CDK9/CycT1 (Homo sapiens, UniProt P50750)"
property_label = "pIC50"
measurement = 7.92

[[record]]
molecule = "CS(=O)(=O)Cc1cccc(Nc2ncnc(-c3cccc4c3OCCC4)n2)c1"
tested_system = "CDK9/CycT1 (Homo sapiens, UniProt P50750)"
property_label = "pIC50"
measurement = 8.15

[[record]]
molecule = "CCCCCOc1cc(F)ccc1-c1ncnc(Nc2cccc(CS(C)(=O)=O)c2)n1"
tested_system = "CDK9/CycT1 (Homo sapiens, UniProt P50750)"
property_label = "pIC50"
measurement = 8.40

[[record]]
molecule = "CC(Oc1cc(F)ccc1-c1ncnc(Nc2cccc(CS(C)(=O)=O)c2)n1)c1ccccc1 (racemic)"
tested_system = "CDK9/CycT1 (Homo sapiens, UniProt P50750)"
property_label = "pIC50"
measurement = 7.80

[[record]]
molecule = "C[C@@H](Oc1cc(F)ccc1-c1ncnc(Nc2cccc(CS(C)(=O)=O)c2)n1)c1ccc(F)cc1"
tested_system = "CDK9/CycT1 (Homo sapiens, UniProt P50750)"
property_label = "pIC50"
measurement = 8.10

[[record]]
molecule = "CCOc1cc(F)ccc1-c1ncnc(Nc2cccc(CS(C)(=O)=O)c2)n1"
tested_system = "CDK9/CycT1 (Homo sapiens, UniProt P50750)"
property_label = "pIC50"
measurement = 8.30

[[record]]
molecule = "CS(=O)(=O)Cc1cccc(Nc2ncnc(-c3ccc(F)cc3OCCC3CCCC3)n2)c1"
tested_system = "CDK9/CycT1 (Homo sapiens, UniProt P50750)"
property_label = "pIC50"
measurement = 7.80

[[record]]
molecule = "CS(=O)(=O)Cc1cccc(Nc2ncnc(-c3ccc(Cl)cc3OC3CCCC3)n2)c1"
tested_system = "CDK9/CycT1 (Homo sapiens, UniProt P50750)"
property_label = "pIC50"
measurement = 6.21

[[record]]
molecule = "CS(=O)(=O)Cc1cccc(Nc2ncnc(-c3ccc(F)cc3OC(F)F)n2)c1"
tested_system = "CDK9/CycT1 (Homo sapiens, UniProt P50750)"
property_label = "pIC50"
measurement = 6.89

[[record]]
molecule = "CS(=O)(=O)Cc1cccc(Nc2ncnc(-c3cc(F)ccc3OCC3CCOCC3)n2)c1"
tested_system = "CDK9/CycT1 (Homo sapiens, UniProt P50750)"
property_label = "pIC50"
measurement = 6.96

[[record]]
molecule = "CS(=O)(=O)Cc1cccc(Nc2ncnc(-c3ccc(F)cc3OCc3ccc(C(F)(F)F)cc3)n2)c1"
tested_system = "CDK9/CycT1 (Homo sapiens, UniProt P50750)"
property_label = "pIC50"
measurement = 7.92

[[record]]
molecule = "CS(=O)(=O)Cc1cccc(Nc2ncnc(-c3cc(F)ccc3OCc3cccc(F)c3)n2)c1"
tested_system = "CDK9/CycT1 (Homo sapiens, UniProt P50750)"
property_label = "pIC50"
measurement = 8.40

[[record]]
molecule = "CCOCCOc1cc(F)ccc1-c1ncnc(Nc2cccc(CS(C)(=O)=O)c2)n1"
tested_system = "CDK9/CycT1 (Homo sapiens, UniProt P50750)"
property_label = "pIC50"
measurement = 7.10

[[record]]
molecule = "COCCOc1cc(F)ccc1-c1ncnc(Nc2cccc(CS(C)(=O)=O)c2)n1"
tested_system = "CDK9/CycT1 (Homo sapiens, UniProt P50750)"
property_label = "pIC50"
measurement = 7.42

[[record]]
molecule = "C[C@@H](Oc1cc(F)ccc1-c1ncnc(Nc2cccc(CS(C)(=O)=O)c2)n1)c1ccccc1"
tested_system = "CDK9/CycT1 (Homo sapiens, UniProt P50750)"
property_label = "pIC50"
measurement = 8.52

[[record]]
molecule = "CS(=O)(=O)Cc1cccc(Nc2ncnc(-c3ccc(F)cc3OCc3ccc(F)c(F)c3F)n2)c1"
tested_system = "CDK9/CycT1 (Homo sapiens, UniProt P50750)"
property_label = "pIC50"
measurement = 8.15

[[record]]
molecule = "CS(=O)(=O)Cc1cccc(Nc2ncnc(-c3ccc(F)cc3OCc3cc(F)c(F)cc3F)n2)c1"
tested_system = "CDK9/CycT1 (Homo sapiens, UniProt P50750)"
property_label = "pIC50"
measurement = 8.22

[[record]]
molecule = "CS(=O)(=O)Cc1cccc(Nc2ncnc(-c3cccc4c3OC(F)(F)C(F)(F)O4)n2)c1"
tested_system = "CDK9/CycT1 (Homo sapiens, UniProt P50750)"
property_label = "pIC50"
measurement = 7.46

[[record]]
molecule = "CS(=O)(=O)Cc1cccc(Nc2ncnc(-c3ccc(F)cc3OCC3CCCCC3)n2)c1"
tested_system = "CDK9/CycT1 (Homo sapiens, UniProt P50750)"
property_label = "pIC50"
measurement = 8.15

[[record]]
molecule = "CS(=O)(=O)Cc1cccc(Nc2ncnc(-c3ccc(F)cc3OCc3ccccc3)n2)c1"
tested_system = "CDK9/CycT1 (Homo sapiens, UniProt P50750)"
property_label = "pIC50"
measurement = 8.52

